# Target system: T1, R47E PTP1B catalytic domain (amino acids 1-321) (human) (UniProt P18031)
# T1 sequence: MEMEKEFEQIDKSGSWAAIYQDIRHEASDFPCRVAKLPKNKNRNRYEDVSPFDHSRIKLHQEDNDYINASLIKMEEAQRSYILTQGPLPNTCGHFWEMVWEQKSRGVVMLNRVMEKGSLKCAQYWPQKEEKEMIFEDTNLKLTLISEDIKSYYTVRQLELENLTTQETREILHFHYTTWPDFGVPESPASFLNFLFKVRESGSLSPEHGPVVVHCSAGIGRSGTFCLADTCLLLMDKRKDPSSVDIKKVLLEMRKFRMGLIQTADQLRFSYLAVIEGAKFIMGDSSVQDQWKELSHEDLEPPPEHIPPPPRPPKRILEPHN
Square brackets hold non-standard residues; d marks the D form. pY = N[C@@H](Cc1ccc(OP(=O)(O)O)cc1)C(=O)O
Measurement type: KM, steady-state dephosphorylation of the pY peptide (µM)
Answer with a number only, understood to be in µM.

Ac-AA[pY]DDAAA-NH2 (SMILES CC(=O)N[C@@H](C)C(=O)N[C@@H](C)C(=O)N[C@@H](Cc1ccc(OP(=O)(O)O)cc1)C(=O)N[C@@H](CC(=O)O)C(=O)N[C@@H](CC(=O)O)C(=O)N[C@@H](C)C(=O)N[C@@H](C)C(=O)N[C@@H](C)C(N)=O) [Ac-AApYDDAAA-NH2] | 34

For the next question, use this binder.
Requested field: KM, steady-state dephosphorylation of the pY peptide. Item: Ac-AA[pY]ADDAA-NH2 (SMILES CC(=O)N[C@@H](C)C(=O)N[C@@H](C)C(=O)N[C@@H](Cc1ccc(OP(=O)(O)O)cc1)C(=O)N[C@@H](C)C(=O)N[C@@H](CC(=O)O)C(=O)N[C@@H](CC(=O)O)C(=O)N[C@@H](C)C(=O)N[C@@H](C)C(N)=O) [Ac-AApYADDAA-NH2]
12
